TARGET_SYSTEM: T1, Recombinant human IL-18 (human, UniProt Q14116 37-193)
T1 sequence: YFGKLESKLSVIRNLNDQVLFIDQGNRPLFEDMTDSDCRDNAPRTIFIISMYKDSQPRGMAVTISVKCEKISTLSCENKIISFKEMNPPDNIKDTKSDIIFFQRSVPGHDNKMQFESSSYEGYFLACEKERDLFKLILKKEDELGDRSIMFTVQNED
PROTOCOL_NOTES: cell-based or functional assay
REPORTED_PROPERTY: IC50, inhibition of IFN-γ release, KG-1 cells, Hu IL-18 (1 nM)
The reply should read as a number followed by its unit.

Could you please provide reported IC50, inhibition of IFN-γ release, KG-1 cells, Hu IL-18 (1 nM) for MOR10222 (antibody, human IgG1, lambda, L234A L235A, V domains shown) VH: EVQLVQSGAEVKKPGSSVKVSCKASGGTFNSYAISWVRQAPGQGLEWMGNIIPMTGQTYYAQKFQGRVTITADESTSTAYMELSSLRSEDTAVYYCARAAYHPLVFDNWGQGTLVTVSS VL: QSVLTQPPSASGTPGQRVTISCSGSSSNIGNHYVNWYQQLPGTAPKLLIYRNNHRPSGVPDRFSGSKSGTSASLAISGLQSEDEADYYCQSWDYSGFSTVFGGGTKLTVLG ? Thanks!
0.7 nM
